Test system: H460
Assay: Proliferation Assays (NSCLC cell line sensitivity)
Type: cell-based
Details: Homo sapiens, NCI-H460; H460; LCC; KRAS MUT G61H; EGFR WT; read-out: IC50
observable: IC50

[[record]]
querysmiles = "C#Cc1cccc(Nc2ncnc3cc(OCCOC)c(OCCOC)cc23)c1"
observable = "IC50"
recordedresult = "> 10 µM"


---

Tested on: NCI-H23
Assay: Proliferation Assays (NSCLC cell line sensitivity)
Type: cell-based
Conditions: NCI-H23; ACA; KRAS MUT 12 mutation G12C; read-out: IC50
observable: IC50 (nM)

[[record]]
querysmiles = "CO[C@H]1CC[C@H](N2C(=O)CNc3ncc(-c4ccc(C(C)(C)O)nc4)nc32)CC1"
unitofmeasure = "nM"
recordedresult = 3000

